# Test system: Gerbillinae
# protocol_summary: Inhibition of [Sar9, Met(O2)11]SP-induced foot tapping in sc dosed gerbil
experimental_readout: log10(ED50) (log10 of the value in mg/kg)

- compound: "COc1ccc(C(C)(OC)C(F)(F)F)cc1CN[C@H]1CCCN[C@H]1c1ccccc1 (mixture of isomers)"
  assay_target: "Gerbillinae"
  log10(ED50): -0.96
- compound: "COc1ccc(C(C)(C)C(F)(F)F)cc1CN[C@H]1CCCN[C@H]1c1ccccc1"
  assay_target: "Gerbillinae"
  log10(ED50): -0.92
- compound: "COc1cc2c(cc1CN[C@H]1CCCN[C@H]1c1ccccc1)[C@](C)(C(F)(F)F)OCC2"
  assay_target: "Gerbillinae"
  log10(ED50): -1.37
- compound: "COc1ccc(CC(F)(F)F)cc1CN[C@H]1CCCN[C@H]1c1ccccc1"
  assay_target: "Gerbillinae"
  log10(ED50): -1.52
- compound: "COc1ccc(C(C(F)(F)F)C(F)(F)F)cc1CN[C@H]1CCCN[C@H]1c1ccccc1"
  assay_target: "Gerbillinae"
  log10(ED50): -0.48
- compound: "COc1cc2c(cc1CN[C@H]1CCCN[C@H]1c1ccccc1)C(C(F)(F)F)CC2 (mixture of isomers; 10)"
  assay_target: "Gerbillinae"
  log10(ED50): -0.96
- compound: "COc1ccc(C(F)C(F)(F)F)cc1CN[C@H]1CCCN[C@H]1c1ccccc1 (mixture of isomers)"
  assay_target: "Gerbillinae"
  log10(ED50): -0.80
- compound: "COc1ccc(C(C)C(F)(F)F)cc1CN[C@H]1CCCN[C@H]1c1ccccc1 (mixture of isomers)"
  assay_target: "Gerbillinae"
  log10(ED50): -0.09
- compound: "COc1ccc(OC(F)(F)F)cc1CN[C@H]1CCCN[C@H]1c1ccccc1"
  assay_target: "Gerbillinae"
  log10(ED50): -0.55

---

# assay_target: Cytochrome P450 2D6 (Homo sapiens, UniProt P10635)
# Sequence (P10635 whole entry): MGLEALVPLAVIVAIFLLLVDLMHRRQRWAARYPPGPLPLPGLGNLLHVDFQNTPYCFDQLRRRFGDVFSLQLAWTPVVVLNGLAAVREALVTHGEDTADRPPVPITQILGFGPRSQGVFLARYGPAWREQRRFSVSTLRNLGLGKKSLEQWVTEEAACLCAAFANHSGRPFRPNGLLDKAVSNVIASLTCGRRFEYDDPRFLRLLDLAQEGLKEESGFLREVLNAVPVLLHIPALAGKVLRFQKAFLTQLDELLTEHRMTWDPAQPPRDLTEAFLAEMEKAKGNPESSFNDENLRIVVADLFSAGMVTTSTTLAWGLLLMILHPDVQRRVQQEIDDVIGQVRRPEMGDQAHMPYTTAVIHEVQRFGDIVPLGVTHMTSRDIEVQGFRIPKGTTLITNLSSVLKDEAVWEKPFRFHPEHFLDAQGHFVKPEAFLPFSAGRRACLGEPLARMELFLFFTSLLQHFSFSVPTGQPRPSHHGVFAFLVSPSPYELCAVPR
# protocol_summary: Inhibition of human CYP2D6 at 5 uM
# Type: ADME
# assay_conditions: 5 µM

- compound: "COc1cc2c(cc1CN[C@H]1CCCN[C@H]1c1ccccc1)C(C(F)(F)F)CCC2 (mixture of isomers; 17)"
  inhibition (INH) [%]: 76.5
- compound: "COc1cc2c(cc1CN[C@H]1CCCN[C@H]1c1ccccc1)C(C)(C(F)(F)F)OC2 (mixture of isomers; 15)"
  inhibition (INH) [%]: 73
- compound: "COc1cc2c(cc1CN[C@H]1CCCN[C@H]1c1ccccc1)C(C)(C(F)(F)F)OC2 (mixture of isomers; 14)"
  inhibition (INH) [%]: 41.8
- compound: "COc1cc2c(cc1CN[C@H]1CCCN[C@H]1c1ccccc1)C(C)(C(F)(F)F)CCC2 (mixture of isomers; 22)"
  inhibition (INH) [%]: 90
- compound: "COc1cc2c(cc1CN[C@H]1CCCN[C@H]1c1ccccc1)C(C)(C(F)(F)F)OC2 (mixture of isomers; 16)"
  inhibition (INH) [%]: 81
- compound: "COc1cc2c(cc1CN[C@H]1CCCN[C@H]1c1ccccc1)C(C)(C(F)(F)F)CCC2 (mixture of isomers; 20)"
  inhibition (INH) [%]: 42
- compound: "COc1cc2c(cc1CN[C@H]1CCCN[C@H]1c1ccccc1)C(C(F)(F)F)CC2 (mixture of isomers; 10)"
  inhibition (INH) [%]: 74.2

---

# protocol_summary: Oral bioavailability in dog at 5 mg/kg
# Type: ADME, organism-based, Canis lupus familiaris
# assay_conditions: in vivo

- test_smiles: "COc1cc2c(cc1CN[C@H]1CCCN[C@H]1c1ccccc1)[C@](C)(C(F)(F)F)OCC2.O"
  bioavailability (%): 9.8

---

# assay_target: CYP2D6 (Homo sapiens)
# Sequence (P10635 whole entry): as above
# protocol_summary: Inhibition of human CYP2D6 at 5 uM
# Type: ADME
Note to self: values exactly at 70% are 1 (yes). So inhibition at 5 µM at or above 70% is 1 (yes), below is 0 (no).

- compound: "COc1cc2c(cc1CN[C@H]1CCCN[C@H]1c1ccccc1)C(C(F)(F)F)CCC2 (mixture of isomers; 18)"
  assay_target: "CYP2D6 (Homo sapiens)"
  assigned_category: "1 (yes)"
- compound: "COc1ccc(C(C)C)cc1CN[C@H]1C2CCN(CC2)[C@H]1C(c1ccccc1)c1ccccc1 [EZLOPITANT]"
  assay_target: "CYP2D6 (Homo sapiens)"
  assigned_category: "0 (no)"
- compound: "COc1ccc(CC(F)(F)F)cc1CN[C@H]1CCCN[C@H]1c1ccccc1"
  assay_target: "CYP2D6 (Homo sapiens)"
  assigned_category: "1 (yes)"
- compound: "COc1ccc(C(C)(C)C(F)(F)F)cc1CN[C@H]1CCCN[C@H]1c1ccccc1"
  assay_target: "CYP2D6 (Homo sapiens)"
  assigned_category: "0 (no)"
- compound: "COc1ccc(C(C)C(F)(F)F)cc1CN[C@H]1CCCN[C@H]1c1ccccc1 (mixture of isomers)"
  assay_target: "CYP2D6 (Homo sapiens)"
  assigned_category: "0 (no)"
- compound: "COc1ccc(C(F)C(F)(F)F)cc1CN[C@H]1CCCN[C@H]1c1ccccc1 (mixture of isomers)"
  assay_target: "CYP2D6 (Homo sapiens)"
  assigned_category: "0 (no)"
- compound: "COc1ccc(C(OC)C(F)(F)F)cc1CN[C@H]1CCCN[C@H]1c1ccccc1 (mixture of isomers)"
  assay_target: "CYP2D6 (Homo sapiens)"
  assigned_category: "1 (yes)"
- compound: "COc1cc2c(cc1CN[C@H]1CCCN[C@H]1c1ccccc1)C(C(F)(F)F)CC2 (mixture of isomers; 11)"
  assay_target: "CYP2D6 (Homo sapiens)"
  assigned_category: "1 (yes)"
- compound: "COc1cc2c(cc1CN[C@H]1CCCN[C@H]1c1ccccc1)C(C(F)(F)F)OC2 (mixture of isomers)"
  assay_target: "CYP2D6 (Homo sapiens)"
  assigned_category: "0 (no)"
- compound: "COc1ccc(C(C(F)(F)F)C(F)(F)F)cc1CN[C@H]1CCCN[C@H]1c1ccccc1"
  assay_target: "CYP2D6 (Homo sapiens)"
  assigned_category: "0 (no)"
- compound: "COc1ccc(C(C)(OC)C(F)(F)F)cc1CN[C@H]1CCCN[C@H]1c1ccccc1 (mixture of isomers)"
  assay_target: "CYP2D6 (Homo sapiens)"
  assigned_category: "0 (no)"
